Target Under Test: recombinant human mGluR2 (Homo sapiens (Human), UniProt Q14416)
Sequence (Q14416 19-872): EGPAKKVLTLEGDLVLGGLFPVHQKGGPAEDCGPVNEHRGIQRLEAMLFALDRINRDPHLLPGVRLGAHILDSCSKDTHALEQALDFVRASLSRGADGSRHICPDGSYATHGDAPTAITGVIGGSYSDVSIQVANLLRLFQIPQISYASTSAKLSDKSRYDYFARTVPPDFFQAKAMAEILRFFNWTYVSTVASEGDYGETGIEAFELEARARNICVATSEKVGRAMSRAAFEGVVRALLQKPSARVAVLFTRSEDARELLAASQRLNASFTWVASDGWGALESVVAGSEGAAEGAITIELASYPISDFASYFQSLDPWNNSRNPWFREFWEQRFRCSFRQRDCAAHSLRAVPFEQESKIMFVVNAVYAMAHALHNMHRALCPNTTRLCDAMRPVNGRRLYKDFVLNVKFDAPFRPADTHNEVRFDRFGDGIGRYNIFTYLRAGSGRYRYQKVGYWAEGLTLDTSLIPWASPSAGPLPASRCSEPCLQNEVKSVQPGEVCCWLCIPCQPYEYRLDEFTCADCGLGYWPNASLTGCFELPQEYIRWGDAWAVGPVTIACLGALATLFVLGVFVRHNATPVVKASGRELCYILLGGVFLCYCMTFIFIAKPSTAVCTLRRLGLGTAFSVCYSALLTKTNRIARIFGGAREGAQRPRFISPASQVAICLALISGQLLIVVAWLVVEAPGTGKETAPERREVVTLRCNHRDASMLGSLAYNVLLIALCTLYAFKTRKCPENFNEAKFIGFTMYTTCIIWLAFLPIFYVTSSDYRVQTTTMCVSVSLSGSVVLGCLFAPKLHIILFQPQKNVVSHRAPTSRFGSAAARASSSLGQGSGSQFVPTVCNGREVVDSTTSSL
Method Notes: FLIPR Ca2+ mobilization assay: inhibition of glutamate-dependent mGluR2 activity
Experimental Context: CHO dhfr- cells stably expressing recombinant human mGluR2 and Gα16, Fluo-4 AM, FLIPR384; inhibition of response to 2,500 nM glutamate
Quantity Kind: IC50 (nM)

(I) NC(=O)c1cc(-c2ccc(F)cc2F)c2c(n1)O[C@@H](COC(F)F)CC2 [Example 3-1A]
(II) NC(=O)c1cc(-c2ccc(F)cc2F)c2c(n1)O[C@@H](CF)CC2 (single isomer, unassigned) [Example 3-6B]
Exam item: Which of these two has the smaller recorded IC50: I or II ? Mark your answer with the label of the selected entry.
Marked response: I
(I: 7 nM, II: 10 nM)

###

Target Under Test: recombinant human mGluR2 (Homo sapiens (Human), UniProt Q14416)
Method Notes: FLIPR Ca2+ mobilization assay: inhibition of glutamate-dependent mGluR2 activity
Experimental Context: CHO dhfr- cells stably expressing recombinant human mGluR2 and Gα16, Fluo-4 AM, FLIPR384; inhibition of response to 2,500 nM glutamate
Quantity Kind: IC50 (nM)

# count of solved cases: 5
- Molecule: "NC(=O)c1cc(-c2ccc(F)cc2F)c2c(n1)[C@H]1CC[C@@H]2O1 (single isomer, unassigned)"
  IC50 [nM]: 159
- Molecule: "C[C@H]1Cc2c(-c3ccc(F)cc3F)cc(C(N)=O)nc2O[C@H]1CO"
  IC50 [nM]: 81
- Molecule: "C[C@H]1Cc2c(-c3ccc(F)cc3F)cc(C(N)=O)nc2O[C@@H]1COC(F)F (single isomer, unassigned)"
  IC50 [nM]: 19
- Molecule: "C[C@@H](OC(F)F)[C@H]1CCc2c(-c3ccc(F)cc3F)cc(C(N)=O)nc2O1"
  IC50 [nM]: 57
- Molecule: "CC1(C)COc2nc(C(N)=O)cc(-c3ccc(F)cc3F)c2C1"
  IC50 [nM]: 25

(a) Cc1ncc(-c2cc(C(N)=O)nc3c2CCC(COC(F)F)O3)s1 (single isomer, unassigned) [Example 3-3A]
(b) C[C@@H]1CCc2c(-c3ccc(F)cc3F)cc(C(N)=O)nc2O1 (single isomer, unassigned)
(c) NC(=O)c1cc(-c2ccc(F)cc2F)c2c(n1)O[C@@H](C1CC1)CC2
Exam item: Arrange the 3 molecules by rising IC50, starting with the smallest. # the answer lists labels in the order requested
Marked response: b, c, a

###

Target Under Test: recombinant human mGluR2 (Homo sapiens (Human), UniProt Q14416)
Method Notes: FLIPR Ca2+ mobilization assay: inhibition of glutamate-dependent mGluR2 activity
Experimental Context: CHO dhfr- cells stably expressing recombinant human mGluR2 and Gα16, Fluo-4 AM, FLIPR384; inhibition of response to 2,500 nM glutamate
Quantity Kind: IC50 (nM)

Example entries and their recorded answers appear below.
- Molecule: "NC(=O)c1cc(-c2ccc(F)cc2F)c2c(n1)O[C@H](C(F)F)CC2"
  IC50, nM: 90
- Molecule: "NC(=O)c1cc(-c2ccc(F)cc2F)c2c(n1)O[C@H](CC(F)(F)F)CC2 (single isomer, unassigned)"
  IC50, nM: 12
- Molecule: "C[C@H]1Cc2c(-c3ccc(F)cc3F)cc(C(N)=O)nc2O[C@H]1COC(F)F (single isomer, unassigned)"
  IC50, nM: 9
- Molecule: "NC(=O)c1cc(-c2cnn(C(F)F)c2)c2c(n1)OC(COC(F)F)CC2 (single isomer, unassigned) [Example 3-4B]"
  IC50, nM: 1490
- Molecule: "NC(=O)c1cc(-c2ccc(F)cc2F)c2c(n1)[C@H]1CC[C@@H](C2)O1"
  IC50, nM: 376

(a) NC(=O)c1cc(-c2ccc(F)cc2F)c2c(n1)O[C@@H](C(F)F)CC2
(b) CC1(C)CCc2c(-c3ccc(F)cc3F)cc(C(N)=O)nc2O1
Exam item: Of a versus b , which is the one with smaller reported IC50? Reply briefly: the label of your chosen item.
Marked response: b
(b: 6 nM, a: 18 nM)

(a) COC[C@H]1CCc2c(-c3ccc(F)cc3F)cc(C(N)=O)nc2O1 (single isomer, unassigned)
(b) NC(=O)c1cc(-c2cnn(C(F)F)c2)c2c(n1)C1CCC(C2)O1 (single isomer, unassigned) [Example 1-5B]
(c) C[C@H]1Cc2c(-c3ccc(F)cc3F)cc(C(N)=O)nc2O[C@@H]1CO
(d) CN(C[C@H]1CCc2c(-c3ccc(F)cc3F)cc(C(N)=O)nc2O1)CC(F)(F)F (single isomer, unassigned)
Exam item: Please order the records by their reported IC50, lowest number first. Use the labels to give the ranking in the order requested.
Marked response: c, a, d, b
(c: 15 nM, a: 27 nM, d: 74 nM, b: 326 nM)

(I) NC(=O)c1cc(-c2ccc(F)cc2F)c2c(n1)[C@@H]1CC[C@H](C2)O1 (single isomer, unassigned)
(II) NC(=O)c1cc(-c2ncc(F)cc2F)c2c(n1)[C@@H]1CC[C@H](C2)O1 (single isomer, unassigned)
Exam item: Hi, I'm comparing I with II and wondering which one has the bigger number for IC50. Any idea? Select an item and report its label.
Marked response: II
(II: 1800 nM, I: 21 nM)

(1) NC(=O)c1cc(-c2ccc(F)cc2F)c2c(n1)O[C@@H](CC(F)(F)F)CC2 (single isomer, unassigned)
(2) NC(=O)c1cc(-c2ccc(Cl)cc2F)c2c(n1)[C@H]1CC[C@@H](C2)O1 (single isomer, unassigned)
Exam item: Would you kindly point out which of 1 and 2 has the smaller IC50 figure? Use the label to indicate which entry you chose.
Marked response: 1

###

Target Under Test: recombinant human mGluR2 (Homo sapiens (Human), UniProt Q14416)
Method Notes: FLIPR Ca2+ mobilization assay: inhibition of glutamate-dependent mGluR2 activity
Experimental Context: CHO dhfr- cells stably expressing recombinant human mGluR2 and Gα16, Fluo-4 AM, FLIPR384; inhibition of response to 2,500 nM glutamate
pIC50: −log10 of the molar value.
Quantity Kind: pIC50

Answered examples (2):
- Molecule: "NC(=O)c1cc(-c2ncc(Cl)cc2F)c2c(n1)[C@@H]1CC[C@H](C2)O1 (single isomer, unassigned) [Example 1-7B]"
  pIC50: 6.76
- Molecule: "CC(C)[C@H]1CCc2c(-c3ccc(F)cc3F)cc(C(N)=O)nc2O1 (single isomer, unassigned) [Example 2-4B]"
  pIC50: 7.16

(1) CN(C[C@@H]1CCc2c(-c3ccc(F)cc3F)cc(C(N)=O)nc2O1)CC(F)(F)F (single isomer, unassigned) [Example 4-1A]
(2) NC(=O)c1cc(-c2ccc(F)cc2F)c2c(n1)[C@@H]1CC[C@H]2O1 (single isomer, unassigned) [Example 5-1B]
(3) NC(=O)c1cc(-c2ccc(Cl)cc2F)c2c(n1)[C@@H]1CC[C@H](C2)O1 (single isomer, unassigned) [Example 1-3B]
Exam item: Ascending by pIC50, please. Rank them, then answer with their labels in that order.
Marked response: 2, 1, 3

###

Target Under Test: recombinant human mGluR2 (Homo sapiens (Human))
Method Notes: FLIPR Ca2+ mobilization assay: inhibition of glutamate-dependent mGluR2 activity
Experimental Context: CHO dhfr- cells stably expressing recombinant human mGluR2 and Gα16, Fluo-4 AM, FLIPR384; inhibition of response to 2,500 nM glutamate
Procedure: Inhibition constants (IC50s; the concentration of compound required to provide 50% of maximal activity) are determined as follows. The compounds of the invention were tested in a fluorescence laser imaging plate reader based assay. This assay is a common functional assay to monitor Ca^2+ mobilization in whole cells expressing recombinant receptor coupled with a promiscuous G-protein. […]
Here, each record is paired with measured IC50 data.

Exam item: Requested read-out: IC50. Entry: NC(=O)c1cc(-c2ncc(F)cc2F)c2c(n1)[C@H]1CC[C@@H](C2)O1 (single isomer, unassigned)
Marked response: > 3 µM

Exam item: Which IC50 reading was recorded for the molecule Cn1cc(-c2cc(C(N)=O)nc3c2CC2CCC3O2)cn1 (single isomer, unassigned) [Example 1-4A] ?
Marked response: > 3 µM

Exam item: # lookup: IC50 of NC(=O)c1cc(-c2cnn(C(F)F)c2)c2c(n1)C1CCC(C2)O1 (single isomer, unassigned) [Example 1-5A]
Marked response: > 3 µM
